These data points were gathered from PubChem BioAssay AID2060328.

Tested on: MDA-MB-231 multicell spheroids, viability (%T/C)
measurement description: Anticancer human tumor MDA-MB-231 cell line growth inhibition [IpAb];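 also: viability read after seven days of drug exposure; 100% = DMSO vehicle control viability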
applied conditions: second compound 0.01 µM; first compound 0.1 µM; active compounds read low
// assign yes (1) if viability, T/C falls strictly below 80%, else no (0) (ties count as no (0))

>>> group_label("CC1(C)CCC(CN2CCN(c3ccc(C(=O)NS(=O)(=O)c4ccc(NCC5CCOCC5)c([N+](=O)[O-])c4)c(Oc4cnc5[nH]ccc5c4)c3)CC2)=C(c2ccc(Cl)cc2)C1 + CCN1CCN(Cc2ccc(Nc3ncc(F)c(-c4cc(F)c5nc(C)n(C(C)C)c5c4)n3)nc2)CC1")
"no (0)"
>>> group_label("COc1c(OCCCN2CCOCC2)ccc2c3n(c(=NC(=O)c4cnc(N)nc4)nc12)CCN3 + CCN1CCN(Cc2ccc(Nc3ncc(F)c(-c4cc(F)c5nc(C)n(C(C)C)c5c4)n3)nc2)CC1")
"yes (1)"
>>> group_label("C=CCn1c(=O)c2cnc(Nc3ccc(N4CCN(C)CC4)cc3)nc2n1-c1cccc(C(C)(C)O)n1 + CCN1CCN(Cc2ccc(Nc3ncc(F)c(-c4cc(F)c5nc(C)n(C(C)C)c5c4)n3)nc2)CC1")
"no (0)"
>>> group_label("Cn1nccc1Nc1nccc(-c2ccn(C(CO)c3ccc(Cl)c(F)c3)c(=O)c2)n1 (stereo not given) + CCN1CCN(Cc2ccc(Nc3ncc(F)c(-c4cc(F)c5nc(C)n(C(C)C)c5c4)n3)nc2)CC1")
"yes (1)"
>>> group_label("Cc1nc(NC(=O)N2CCCC2C(N)=O)sc1-c1ccnc(C(C)(C)C(F)(F)F)c1 (stereo not given) + CCN1CCN(Cc2ccc(Nc3ncc(F)c(-c4cc(F)c5nc(C)n(C(C)C)c5c4)n3)nc2)CC1")
"yes (1)"
>>> group_label("Cn1ncc(Cl)c1-c1cc(C(=O)NC(CN)Cc2cccc(F)c2)sc1Cl (stereo not given) + CCN1CCN(Cc2ccc(Nc3ncc(F)c(-c4cc(F)c5nc(C)n(C(C)C)c5c4)n3)nc2)CC1")
"yes (1)"
>>> group_label("CC(C)n1nc(-c2ccc3oc(N)nc3c2)c2c(N)ncnc21 + CCN1CCN(Cc2ccc(Nc3ncc(F)c(-c4cc(F)c5nc(C)n(C(C)C)c5c4)n3)nc2)CC1")
"yes (1)"
>>> group_label("C=CC(=O)N1CCN(c2nc(=O)n(-c3c(C)ccnc3C(C)C)c3nc(-c4c(O)cccc4F)c(F)cc23)C(C)C1 (stereo not given) + CCN1CCN(Cc2ccc(Nc3ncc(F)c(-c4cc(F)c5nc(C)n(C(C)C)c5c4)n3)nc2)CC1")
"no (0)"
>>> group_label("CCCS(=O)(=O)Nc1ccc(F)c(C(=O)c2c[nH]c3ncc(-c4ccc(Cl)cc4)cc23)c1F + CCN1CCN(Cc2ccc(Nc3ncc(F)c(-c4cc(F)c5nc(C)n(C(C)C)c5c4)n3)nc2)CC1")
"no (0)"
>>> group_label("Cn1ncnc1[C@H]1c2n[nH]c(=O)c3cc(F)cc(c23)N[C@@H]1c1ccc(F)cc1 + CCN1CCN(Cc2ccc(Nc3ncc(F)c(-c4cc(F)c5nc(C)n(C(C)C)c5c4)n3)nc2)CC1")
"yes (1)"

###

Tested on: MDA-MB-231 multicell spheroids, viability (%T/C)
measurement description: Anticancer human tumor MDA-MB-231 cell line growth inhibition [IpAb];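 also: viability read after seven days of drug exposure; 100% = DMSO vehicle control viability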
applied conditions: second compound 10 µM; first compound 3.16 µM; active compounds read low
property name: viability, T/C

>>> experimental_value("C=CCn1c(=O)c2cnc(Nc3ccc(N4CCN(C)CC4)cc3)nc2n1-c1cccc(C(C)(C)O)n1 + CC(C)NCC(C(=O)N1CCN(c2ncnc3c2C(C)CC3O)CC1)c1ccc(Cl)cc1")
"15%"
>>> experimental_value("C=CC(=O)N1CCN(c2nc(=O)n(-c3c(C)ccnc3C(C)C)c3nc(-c4c(O)cccc4F)c(F)cc23)C(C)C1 (configuration not stated) + CC(C)NCC(C(=O)N1CCN(c2ncnc3c2C(C)CC3O)CC1)c1ccc(Cl)cc1")
"41.6%"
>>> experimental_value("Cc1nc(NC(=O)N2CCCC2C(N)=O)sc1-c1ccnc(C(C)(C)C(F)(F)F)c1 (configuration not stated) + CC(C)NCC(C(=O)N1CCN(c2ncnc3c2C(C)CC3O)CC1)c1ccc(Cl)cc1")
"37.8%"
>>> experimental_value("Cn1nccc1Nc1nccc(-c2ccn(C(CO)c3ccc(Cl)c(F)c3)c(=O)c2)n1 (configuration not stated) + CC(C)NCC(C(=O)N1CCN(c2ncnc3c2C(C)CC3O)CC1)c1ccc(Cl)cc1")
"9%"
>>> experimental_value("Cn1ncc(Cl)c1-c1cc(C(=O)NC(CN)Cc2cccc(F)c2)sc1Cl (configuration not stated) + CC(C)NCC(C(=O)N1CCN(c2ncnc3c2C(C)CC3O)CC1)c1ccc(Cl)cc1")
"26.1%"
>>> experimental_value("CCCS(=O)(=O)Nc1ccc(F)c(C(=O)c2c[nH]c3ncc(-c4ccc(Cl)cc4)cc23)c1F + CC(C)NCC(C(=O)N1CCN(c2ncnc3c2C(C)CC3O)CC1)c1ccc(Cl)cc1")
"35%"
>>> experimental_value("CC1(C)CCC(CN2CCN(c3ccc(C(=O)NS(=O)(=O)c4ccc(NCC5CCOCC5)c([N+](=O)[O-])c4)c(Oc4cnc5[nH]ccc5c4)c3)CC2)=C(c2ccc(Cl)cc2)C1 + CC(C)NCC(C(=O)N1CCN(c2ncnc3c2C(C)CC3O)CC1)c1ccc(Cl)cc1")
"36.4%"
